B1: TPR t1 (parent)
chain: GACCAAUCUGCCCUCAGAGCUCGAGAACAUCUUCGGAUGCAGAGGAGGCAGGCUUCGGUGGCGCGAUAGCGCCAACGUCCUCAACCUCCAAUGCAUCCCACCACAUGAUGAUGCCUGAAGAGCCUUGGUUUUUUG

Variants of: B1
Test method notes: polymerase ribozyme fitness, log enrichment relative to wild type (log ratio); higher = more active; in vitro selection for triplet polymerase activity
Assign Satisfied whenever polymerase ribozyme fitness (log ratio) does not fall below -2; assign Not satisfied whenever it does.

>>> classification("A26G A27U G36A U112G U129G")
"Not satisfied"
>>> classification("C62A G127A")
"Not satisfied"
>>> classification("U54A U96C")
"Satisfied"
>>> classification("A6U G110A")
"Satisfied"
>>> classification("C101A U109A A111G G120U C124U")
"Not satisfied"
>>> classification("C72U U96G U126C")
"Satisfied"
>>> classification("C15A A37G C79G")
"Not satisfied"
>>> classification("C8G U14C G45A A84G")
"Satisfied"
>>> classification("G44U G77C A90U")
"Satisfied"
>>> classification("C13U C70A A84U")
"Satisfied"
>>> classification("U38A C101A A119U A121U G122U")
"Not satisfied"
>>> classification("G48A U59C C82A G93C U116G U131A")
"Not satisfied"
>>> classification("C72U C86G")
"Satisfied"
>>> classification("C53A C56G C70U U132A")
"Satisfied"
>>> classification("C62A G127C")
"Satisfied"
>>> classification("C114A C124A")
"Satisfied"
>>> classification("A74C U130A")
"Satisfied"
>>> classification("G42A G63C U133G")
"Not satisfied"
>>> classification("A16C G23C G61C G63A U87A A105G G110C")
"Not satisfied"
>>> classification("C8G C115A")
"Satisfied"
>>> classification("C88G G120A")
"Satisfied"

This collection of values is drawn from the RNAGym collection of RNA variant scans (doi:10.1073/pnas.2313332121).
